# System: A549/ATCC NSCLC
# procedure details: NCI-60 one-dose screen, 48 h (100 = growth as untreated, 0 = no growth, -100 = all killed)
# measurement parameters: 10 µM unless noted
This is part of a sample that, as a whole, favours compounds with a hit. Of some 83,000 tested, about 20% had one in any assay.
Threshold-based label: growth under 90% gives 1 (yes), growth not under 90% gives 0 (no).

molecule: O=C(N/N=C1\SCC(=O)N1c1ccccc1)c1cc(-c2cc3ccccc3o2)nn1-c1ccccc1
category: 0 (no)

molecule: CC1(C)Cc2c(Br)c(Br)c(Br)c(OCC(O)CN3CCN(c4ccccn4)CC3)c2O1 (stereo not given)
category: 1 (yes)

molecule: COc1ccc(/C(Cl)=N/N=C(\Cl)c2cc(OC)c(OC)c(OC)c2)cc1OC(C)=O
category: 1 (yes)

molecule: CCCCCn1ncc(-c2c(O)c(O)cc3c(O)c(-c4c(C)cc5c(-c6cnn(CCCCC)n6)c(O)c(O)cc5c4O)c(C)cc23)n1
category: 1 (yes)

Now look at this entry.
Query: Item COc1cc(NC(=O)C#Cc2ccccc2)c(OC)cc1Cl : growth beneath 90%, strictly?
Reply: 1 (yes)

###

# Test system: 786-0 renal
# procedure details: NCI-60 one-dose screen, 48 h (100 = growth as untreated, 0 = no growth, -100 = all killed)
# measurement parameters: 10 µM unless noted
About 83,000 compounds went through this panel and 20% of them were active in at least one assay; those are over-represented in the sample as a whole.
readout: growth (%)
Answers are plain numbers, in %.

Please review the following examples before continuing.
compound: C=CC(=O)Nc1cccc(Nc2nc(Nc3ccc(OCCOC(F)F)cc3)ncc2F)c1
readout: growth
units label: %
numeric result: 20

compound: CC(C)CNCC(=O)Nc1ccc(Cc2ccc(NC(=O)CNCC(C)C)cc2)cc1
readout: growth
units label: %
numeric result: 42.8

compound: COc1ccc(-c2nn(-c3ccc(NC(=O)c4ccc(Cl)c(C(F)(F)F)c4)cc3)cc2-c2ccncc2)cc1Cl
readout: growth
units label: %
numeric result: -55.7

Report growth for every entry below.
1. COC1=C(OC)C(=O)C=CC1=O
2. CC(=O)Nc1ccc([I+]c2ccc([N+](=O)[O-])cc2)cc1
3. CN(C)C(=O)Nc1nc2cc(Cl)c(Cl)cc2[nH]1

Reply:
1. 103
2. 98.3
3. -66.2

Report growth for every entry below.
1. COc1ccccc1C(OC(C)=O)OC(C)=O
2. Cc1nc(N)nc(SCc2ccccc2)c1Br

Reply:
1. 97.7
2. 88.9

Report growth for every entry below.
1. C[C@]12O[C@H]1[C@H](O)c1c(cc(O)c3c1C(=O)c1cccc(O)c1-3)C2=O
2. CCCCOc1nc2ccc(Cl)cc2cc1/C=C/C(=O)/C=C/c1ccc(OC)cc1
3. COc1cc(NC(C)CCCN2C(=O)c3ccccc3C2=O)c2ncccc2c1OC (stereo unspecified)
4. Cc1ccc(-c2cn3cc([N+](=O)[O-])ccc3n2)cc1

Reply:
104
110
91.1
91.9

###

# Tested on: OVCAR-5 ovarian
# procedure details: NCI-60 one-dose screen, 48 h
# measurement parameters: 10 µM unless noted
Compounds without any hit were thinned out: in the full panel of roughly 83,000, 20% have a hit. The source made the active and inactive calls. The calls were made as follows: active = growth percent below 10; inactive = the rest.
Use one of these outcomes when replying: Yes (active), No (inactive)

compound: Cc1c(F)cccc1NC(=O)c1sc2nc3c(cc2c1N)CCCCC3
subject of test: OVCAR-5 ovarian
category: No
//
compound: COc1ccc(OC)c(NCC(=O)n2nc(/C=C\c3ccc(O)c(OC)c3)cc2/C=C\c2ccc(O)c(OC)c2)c1
subject of test: OVCAR-5 ovarian
category: No
//
compound: O=C(Nc1ccc(-n2cc(-c3ccncc3)c(-c3ccc(O)c(Cl)c3)n2)cc1)c1cc(Cl)cc(Cl)c1
subject of test: OVCAR-5 ovarian
category: No
//
compound: O=S(=O)(CCN1CCOCC1)Nc1cncc(-c2ccc3ncnc(Nc4ccc(F)c(Cl)c4)c3c2)c1
subject of test: OVCAR-5 ovarian
category: No
//
compound: CCOC(=O)c1noc2c1CCc1c-2cn(Cc2ccc(OC)cc2)c1-c1cc(OC)c(OC)c(OC)c1
subject of test: OVCAR-5 ovarian
category: No

Query: Field: outcome | Entry: Cc1cccc[n+]1CCC[n+]1ccccc1C
Reply: No

Query: Field: outcome | Entry: O=C(NCCNc1nccc(-c2c(-c3cccc(O)c3)nc3sccn23)n1)c1cccc(C(F)(F)F)c1
Reply: No

Query: Field: outcome | Entry: COc1cc(NC(C)CCCN2C(=O)c3ccccc3C2=O)c2ncccc2c1OC (centres undefined)
Reply: No

Query: Field: outcome | Entry: COc1ccc(NC(=O)Nc2ccc(-c3ccc(OC)c(OC)c3)nc2C)cc1
Reply: No

Query: Field: outcome | Entry: CCCCOc1nc2ccc(Cl)cc2cc1/C=C/C(=O)/C=C/c1ccc(Cl)cc1
Reply: No

Query: Field: outcome | Entry: Cn1cnc([N+](=O)[O-])c1N1c2ccncc2Sc2ccncc21
Reply: No

Query: Field: outcome | Entry: Cc1cc(N2CCOCC2)nc(N(CCNc2ccnc3cc(Cl)ccc23)Cc2ccco2)n1
Reply: No

Query: Field: outcome | Entry: Oc1ccc(Cl)cc1Sc1cc(Cl)ccc1O
Reply: No

Query: Field: outcome | Entry: CN1CCN(Cn2nc(-c3cc(F)c(Cl)cc3Cl)n(/N=C/c3ccc(N(C)C)cc3)c2=S)CC1
Reply: No

Query: Field: outcome | Entry: NS(=O)(=O)c1ccc(-n2nc(-c3ccc(Cl)cc3)ccc2=O)cc1
Reply: No

Query: Field: outcome | Entry: COc1cc(-c2nc3sc(C)cn3c2/C=C2\C(=O)Nc3ccccc32)c(Br)c(OC)c1OC
Reply: No

Query: Field: outcome | Entry: CCOC(=O)c1cnc2c(OC)ccc(OC)c2c1Cl
Reply: No

Query: Field: outcome | Entry: O=C(O)c1ccc(-n2cc(/C=N/Nc3ccc(F)cc3)c(-c3cccc(C(F)(F)F)c3)n2)cc1
Reply: No

Query: Field: outcome | Entry: COc1cc(-c2nc(SCC(=O)Nc3ccc(C(C)=O)cc3)[nH]c(=O)c2C#N)cc(OC)c1OC
Reply: No

Query: Field: outcome | Entry: Cc1ccc2c(c1)Nc1ccc(C)cc1C2(C)C
Reply: No

Query: Field: outcome | Entry: NC(N)=N/N=C/c1ccc([N+](=O)[O-])cc1
Reply: No

Query: Field: outcome | Entry: CC(=O)n1cc(/C=C2\N=C(c3ccc(Cl)cc3)N(c3ccc(S(=O)(=O)Nc4nccs4)cc3)C2=O)c2ccccc21
Reply: No

Query: Field: outcome | Entry: O=C1OC(c2ccc(-c3ccccc3)cc2)=C/C1=C/C=C/c1ccccc1
Reply: No

Query: Field: outcome | Entry: C=C(C)[C@@H]1C/C=C(\COC(=O)[C@H](OC(C)=O)C(NC(=O)c2ccccc2)c2ccccc2)CC[C@H]2O[C@]2(C)CC/C=C(\C)CC1 (some centres undefined)
Reply: No

Query: Field: outcome | Entry: CCN(CC)CCC(C(=O)O)(c1ccccc1)c1ccccc1
Reply: No

Query: Field: outcome | Entry: Nc1nc(-c2cc3c(cc2Cl)NC(=O)/C3=C/c2ccc(Cl)cc2)cs1
Reply: No

Query: Field: outcome | Entry: O=S(=O)(CCN1CCOCC1)Nc1cc(-c2ccc3ncnc(Nc4ccc(F)c(Cl)c4)c3c2)cnc1Cl
Reply: No

###

# System: HCT-116 colon
# procedure details: NCI-60 one-dose screen, 48 h (100 = growth as untreated, 0 = no growth, -100 = all killed)
# measurement parameters: 10 µM unless noted
# Experimental: Growth inhibition of the HCT-116 human tumor cell line is measured as a screen for anti-cancer activity. Cells are grown in 96 well plates and exposed to the test compound for 48 hours. Compounds are tested at a single concentration, which is 10^-5 M for most compounds. The reported endpoint is percent growth (GI% or GIPRCNT), where numbers from 0 - 100% represent growth inhibition, and numbers from -100% - 0 represent cell death. For example, a value of 40 represents 60% growth inhibition. […]
This is part of a sample that, as a whole, favours compounds with a hit. Of some 83,000 tested, about 20% had one in any assay. Calls of active or inactive are those of the source. The calls were made as follows: active = growth percent below 10; inactive = the rest.
readout: growth

Please review the following examples before continuing.
compound: COc1ccc(-c2nnc(SCC(=O)Nc3ccc(C(=O)/C=C/c4ccc(Cl)cc4)cc3)o2)cc1OC
subject of test: HCT-116 colon
growth: 75.6% (inactive)
--
compound: O=C1c2ccccc2OC=C(c2ccccc2)N1CCCCN1CCCCC1
subject of test: HCT-116 colon
growth: 27.2% (inactive)
--
compound: Cc1[nH]n(C(=O)c2ccncc2)c(=O)c1N=Nc1ccc(S(=O)(=O)Nc2ccncn2)cc1
subject of test: HCT-116 colon
growth: 92.6% (inactive)

Report growth for every entry below.
1. CCOC(=O)c1[nH]c(-c2ccc(Cl)cc2)cc1-c1cccnc1
2. O=[N+]([O-])c1cccc(C(c2ccccc2)c2ccccc2)c1
3. CS(=O)(=O)Nc1cccc(-c2ccc3ncnc(Nc4cncc(Cl)c4)c3c2)c1
4. NS(=O)(=O)c1ccc(-n2nc(-c3ccc(Cl)cc3)ccc2=O)cc1
5. OC(COc1ccccc1Cl)CN1CCN(c2ccc(Cl)cc2)CC1 (stereo not drawn)
6. O=C(CSc1nnc(-c2cc3c([nH]c4ccccc43)c(-c3cccc(O)c3)n2)n1-c1ccccc1)c1ccccc1
7. CC(=O)Nc1ccc([I+]c2ccc([N+](=O)[O-])cc2)cc1
8. COc1cc2ncn3c(=O)c4c5c(sc4nc3c2cc1OC)CCCCC5

Reply:
9.8% (active)
65.6% (inactive)
30.4% (inactive)
99.6% (inactive)
96.4% (inactive)
29.7% (inactive)
81% (inactive)
97.4% (inactive)

Report growth for every entry below.
1. Cc1ccc2c(c1)Nc1ccc(C)cc1C2(C)C
2. O=c1c2ccccc2[nH]n1Cc1ccc2c(c1)OCO2
3. CN1CCN(CC(O)COc2c(Br)c(Br)c(Br)c3c2OC(C)(C)C3)CC1 (stereo not drawn)
4. CCCCCCCCCCCC(=O)OCCNC(=O)C[n+]1ccccc1

Reply:
["89.3% (inactive)", "99.9% (inactive)", "20.7% (inactive)", "103% (inactive)"]

Report growth for every entry below.
1. C#CCn1c(-c2cc(OC)c(OC)cc2Br)nc(-c2ccccc2)c1-c1ccccc1
2. Cc1nc(N)nc(SCc2ccccc2)c1Br
3. COC(=O)/C=C/C(=O)c1cc(C)cc(C)c1O
4. c1cncc(-c2nc3ccccc3[nH]2)c1
5. CCN(CC)CCNCC(O)Cc1ccc(OC)cc1 (stereo not drawn)

Reply:
1: 19.9% (inactive); 2: 89% (inactive); 3: 106% (inactive); 4: 93.8% (inactive); 5: 82.4% (inactive)
